biological target: UniProtKB Q99720; assay: Human σ1 receptor radioligand assay ([3H](+)-pentazocine, transfected HEK-293 membranes); details: one combined class for Ki-σ1 (A1) and Ki-μ (human μ-opioid receptor, A2); read-out: μ and σ1 dual binding
Sequence (Q99720 whole entry): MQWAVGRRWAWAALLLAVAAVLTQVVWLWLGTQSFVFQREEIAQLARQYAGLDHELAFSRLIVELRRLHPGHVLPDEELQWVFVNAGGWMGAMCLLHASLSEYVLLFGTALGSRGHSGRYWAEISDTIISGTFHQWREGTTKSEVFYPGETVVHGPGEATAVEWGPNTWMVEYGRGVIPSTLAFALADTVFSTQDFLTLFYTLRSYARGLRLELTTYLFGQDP
pKi: −log10 of the molar value.
measure name: pKi

>>> observed_measurement("CN(CCSC(c1ccccc1)c1ccnn1C)Cc1ccccc1 (centres unmarked) [Example 33]")
"> 6.30"
>>> observed_measurement("CN(CCOC(c1cncs1)c1ccnn1C)Cc1ccccc1 (centres unmarked) [Example 41]")
"< 6.30"
>>> observed_measurement("CN(CC[S+]([O-])C(c1ccccc1)c1ccnn1C)Cc1ccccc1 (centres unmarked) [Example 34]")
"< 6.30"
>>> observed_measurement("CN(CCOC(c1ccccc1)c1ccnn1C)Cc1ccc(C(F)(F)F)nc1 (centres unmarked) [Example 3]")
"< 6.30"
>>> observed_measurement("CN(CCOC(c1ccccc1O)c1ccnn1C)Cc1ccccc1 (centres unmarked) [Example 52]")
"> 6.30"
>>> observed_measurement("CN(CCOC(c1ccccc1)c1ccnn1C)CCc1ccccc1 (centres unmarked) [Example 7]")
"> 6.30"
>>> observed_measurement("CN(CCOC(c1ccccn1)c1ccnn1C)Cc1ccccc1 (centres unmarked) [Example 40]")
"< 6.30"
>>> observed_measurement("CN(CCO[C@@H](c1ccccc1)c1ccnn1C)CCc1ccccc1 [Example 19]")
"> 6.30"
